tested.on: T1, human CD4 on cells (SKW3 cells; human PBMCs) (human, UniProt P01730 26-458)
T1 construct: whole, on cells; SKW3 CD4 knockout cells served as the negative cell line; also called hCD4
protocol.text: FACS confirmation, supernatant on SKW3 WT cells, anti-mouse Fc 647; background gMFI 3300
property.label: SKW3 WT anti-mFc 647, gMFI (gMFI)
Answer format: numeric, gMFI implied, no suffix.

Use these answered entries as a reference point.
75110_12K21A (antibody, V domains shown, Tested as non-clonal AlivaMab Mouse Kappa hybridoma supernatant: human variable domains and human kappa, mouse Fc) VH: QVQLQQWGAGLLKPSETLSLTCAVSGGSFSGYYWSWIRQPPGKGLEWIGEINHSGSTNCNPSLKSRVTISVDTSNNQFSLKLSSVTAADTAVYYCARVLNYFDYWGQGTLVTVSS VL: DIQMTQSPSSVSASVGDRVTITCRASPDIANWLAWYQQKPGKAPELLIYAASSLQSGVPSRFSGSGSGTDFTLTISSLQPEDFATYFCQQANSFPLTFGGGTKVESK    25000
75110_13P22A (antibody, IgG1, V domains shown, Tested as non-clonal AlivaMab Mouse Kappa hybridoma supernatant: human variable domains and human kappa, mouse Fc) VH: QVQLQQWGAGLLKPSETLSLTCAAYGGSFSGYYWSWIRQSPGKGLEWIGEINQSGNTNYNPSLKSRVTISADTSKNQFSLKLSSVTAADTAVYYCARVLNWFDYWGQGILVTVSS VL: DIQMTQSPSSVSASVGDRVTITCRASQGISDWLAWYQQKSGKAPDLLIFAASSLQSGVPSRFSGSGSGTDFTLTISSLQPEDFATYYCQQANSFPYTFGQGTKLEIK    18200

Asked: Look up and report measured SKW3 WT anti-mFc 647, gMFI for this entry: 75110_13P21A (antibody, IgG1, V domains shown, Tested as non-clonal AlivaMab Mouse Kappa hybridoma supernatant: human variable domains and human kappa, mouse Fc) VH: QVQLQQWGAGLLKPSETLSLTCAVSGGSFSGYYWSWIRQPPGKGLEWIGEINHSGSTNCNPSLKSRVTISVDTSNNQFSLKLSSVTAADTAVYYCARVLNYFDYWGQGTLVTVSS VL: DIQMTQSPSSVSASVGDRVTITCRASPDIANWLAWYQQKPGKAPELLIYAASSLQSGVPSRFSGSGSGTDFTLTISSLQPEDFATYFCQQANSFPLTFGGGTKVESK
Given back: 30900

Asked: Give reported SKW3 WT anti-mFc 647, gMFI value for 75110_04P06A (antibody, IgG1, V domains shown, Tested as non-clonal AlivaMab Mouse Kappa hybridoma supernatant: human variable domains and human kappa, mouse Fc) VH: EVQLVESGGGLVQPGGSLRLSCAASGFTFSNYDMHWVRQATGKGLEWVSTIGTAGDTYYPGSVKGRFTISRENAKNSLYLQMNSLRAGDTAVYYCARGGDYYYGMDVWGQGTTVTVSS VL: EIVLTQSPDTLSLSPGERATLSCRASQSLSSVYLAWYQQKPGQAPRLLIYGASSRATGIPDRFSGSGSGTDFTLTINRLEPEDFVVYYCQQYGSSPFTFGPGTKVDIK
Given back: 24500

Asked: Tell me its SKW3 WT anti-mFc 647, gMFI given 75110_07B16A (antibody, IgG1, V domains shown, Tested as non-clonal AlivaMab Mouse Kappa hybridoma supernatant: human variable domains and human kappa, mouse Fc) VH: QVQLQQWGAGLLKPSETLSLTCAVYGGSFSGYYWSWIRQSPGKGLEWIGEINQSGSTNYNPSLKSRVTISVDTSKDQFSLKLSSVTAADTAVYYCARVINWFDSWGQGSLVTVSS VL: DIQMTQSPSSVSASVGDRVTITCRASQGISSWLAWYQQKPGKAPKLLIYDASSFQSGVPSRFSGSGSGTDFTLTISSLQTDDFATYYCQQANSFPYTFGQGTKLEIK as the entry.
Given back: 30800
